Values compiled from patent US20260308186A1.

Listed here: items and their measured pIC50.
- ASSAYED_TARGET: pSTAT6 (Homo sapiens)
- Construct: pY641-STAT6 MSD read-out
- ASSAY_TEXT: MSD-pSTAT-PBMC Assay, pSTAT6 (IL-4 stimulated PBMC)
- Assay type: cell-based
- REPORTED_CONDITIONS: compound 3 hrs, then 1 ng/mL IL-4 for 10 min, pY641-STAT6, read-out: pSTAT6 IC50
pIC50: −log10 of the molar value.

// query Fill: pIC50 (pSTAT6 (Homo sapiens)) for this compound N#CC1CN(C(=O)C2CCC3CCN(C(=O)CCCCCC#Cc4cccc5c4CN(C4CCC(=O)NC4=O)C5=O)CC(NC(=O)c4cc5cc(C(F)(F)P(=O)(O)O)ccc5s4)C(=O)N32)CC1c1ccccc1 (centres unmarked) [Compound 6]
// result 5.52 to 6.00

// query Please report pIC50 with pSTAT6 (Homo sapiens) for item Cc1ccc2onc(C(=O)N3CC[C@H]4CC[C@@H](C(=O)N(C)CCCCCCC#Cc5cccc6c5CN(C5CCC(=O)NC5=O)C6=O)N4C(=O)[C@@H](NC(=O)c4ccc5ccc(C(F)(F)P(=O)(OCCSC(=O)C(C)(C)C)OCCSC(=O)C(C)(C)C)cc5c4)C3)c2c1 (some centres unmarked) [Compound 18] .
// result > 7.00

----------
- ASSAYED_TARGET: pSTAT6 (Homo sapiens, UniProt P42226)
- Construct: pY641-STAT6 MSD read-out
- Sequence (P42226 whole entry): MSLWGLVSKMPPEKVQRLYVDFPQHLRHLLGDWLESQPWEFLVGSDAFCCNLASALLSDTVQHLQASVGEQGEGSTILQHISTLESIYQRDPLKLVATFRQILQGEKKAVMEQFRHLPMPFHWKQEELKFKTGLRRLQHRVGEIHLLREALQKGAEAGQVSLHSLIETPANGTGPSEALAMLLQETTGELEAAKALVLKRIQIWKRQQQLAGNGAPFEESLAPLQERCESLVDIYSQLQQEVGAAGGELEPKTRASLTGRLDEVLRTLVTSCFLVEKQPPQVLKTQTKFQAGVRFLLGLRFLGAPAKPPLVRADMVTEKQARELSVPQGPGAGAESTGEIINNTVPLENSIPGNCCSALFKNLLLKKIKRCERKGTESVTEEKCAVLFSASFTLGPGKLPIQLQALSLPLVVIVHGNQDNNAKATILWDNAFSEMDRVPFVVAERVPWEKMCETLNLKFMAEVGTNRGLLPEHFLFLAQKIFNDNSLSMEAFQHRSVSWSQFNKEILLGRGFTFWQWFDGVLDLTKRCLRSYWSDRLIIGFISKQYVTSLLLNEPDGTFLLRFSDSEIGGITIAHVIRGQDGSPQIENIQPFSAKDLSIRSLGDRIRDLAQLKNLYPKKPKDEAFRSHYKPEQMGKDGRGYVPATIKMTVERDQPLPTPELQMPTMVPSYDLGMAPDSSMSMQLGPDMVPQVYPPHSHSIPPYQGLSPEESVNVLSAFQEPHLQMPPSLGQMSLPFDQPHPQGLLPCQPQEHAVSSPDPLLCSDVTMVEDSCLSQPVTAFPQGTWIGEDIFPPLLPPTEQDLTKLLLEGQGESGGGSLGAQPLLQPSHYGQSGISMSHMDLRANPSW
- ASSAY_TEXT: MSD-pSTAT-PBMC Assay, pSTAT6 (IL-4 stimulated PBMC)
- Format: cell-based
- REPORTED_CONDITIONS: compound 3 hrs, then 1 ng/mL IL-4 for 10 min, pY641-STAT6, read-out: pSTAT6 IC50
MEASURED_ENDPOINT: IC50

Check out these entries, answers already filled in.
Cc1ccc2onc(C(=O)N3CC[C@H]4CC[C@@H](C(=O)N(C)CCCCCCC#Cc5cccc6c5CN(C5CCC(=O)NC5=O)C6=O)N4C(=O)[C@@H](NC(=O)c4ccc5ccc(C(F)(F)P(=O)(O)O)cc5c4)C3)c2c1 (stereo partly drawn)
0.1 to 1 µM
Cc1ccc2onc(C(=O)N3CC[C@H]4CC[C@@H](C(=O)N(C)CC(=O)N[C@H](C(=O)N5C[C@H](O)C[C@H]5C(=O)N[C@@H](C)c5ccc(-c6scnc6C)cc5)C(C)(C)C)N4C(=O)[C@@H](NC(=O)c4ccc5ccc(C(F)(F)P(=O)(O)O)cc5c4)C3)c2c1
> 3 µM

Next compound, please.
// query Tell us which IC50 value is on record for Cc1ccc2onc(C(=O)N3CC[C@H]4CC[C@@H](C(=O)N5CCN(c6cc(C(C(=O)N7C[C@H](O)C[C@H]7C(=O)N[C@H](C)c7ccc(-c8scnc8C)cc7)C(C)C)on6)CC5)N4C(=O)[C@@H](NC(=O)c4ccc5ccc(C(F)(F)P(=O)(O)O)cc5c4)C3)c2c1 (stereo partly drawn)
// result > 3 µM

----------
- ASSAYED_TARGET: pSTAT6 (Homo sapiens, UniProt P42226)
- Construct: pY641-STAT6 MSD read-out
- ASSAY_TEXT: MSD-pSTAT-PBMC Assay, pSTAT6 (IL-4 stimulated PBMC)
- Format: cell-based
- REPORTED_CONDITIONS: read-out: pSTAT6 IC50, compound 3 hrs, then 1 ng/mL IL-4 for 10 min, pY641-STAT6
pIC50: −log10 of the molar value.
Entries annotated with measured pIC50

// query State its pIC50 for this molecule: "CCCC(=O)SCCOP(=O)(OCCSC(=O)CCC)C(F)(F)c1ccc2ccc(C(=O)N[C@H]3CN(C(=O)c4n[nH]c5ccc(C)cc45)CC[C@H]4CC[C@@H](C(=O)NCCCCCCCCC(=O)N[C@H](C(=O)N5C[C@H](O)C[C@H]5C(=O)N[C@@H](C)c5ccc(-c6scnc6C)cc5)C(C)(C)C)N4C3=O)cc2c1"
// result 5.52 to 6.00

// query Input CCCOC(=O)[C@H](C)NP(=O)(Cc1ccc2ccc(C(=O)N[C@H]3CN(C(=O)c4n[nH]c5ccc(C)cc45)CC[C@H]4CC[C@@H](C(=O)N(C)CCCCCCC#Cc5cccc6c5CN(C5CCC(=O)NC5=O)C6=O)N4C3=O)cc2c1)Oc1ccccc1 (some centres unmarked) , output reported pIC50.
// result < 5.52

// query Report pIC50 for Cc1ccc2[nH]nc(C(=O)N3CC[C@H]4CC[C@@H](C(=O)NCCCCCCC#Cc5cccc6c5CN(C5CCC(=O)NC5=O)C6=O)N4C(=O)[C@@H](NC(=O)c4ccc5ccc(C(F)(F)P(=O)(O)O)cc5c4)C3)c2c1 (some centres unmarked)
// result 5.52 to 6.00

// query Return pIC50 (reported value) for this molecule: CC(=O)N1CC[C@H]2CC[C@@H](C(=O)Nc3ccc(-c4ccc(NC(=O)CCCCCC#Cc5cccc6c5CN(C5CCC(=O)NC5=O)C6=O)cc4)cc3)N2C(=O)[C@@H](NC(=O)c2cc3cc(C(F)(F)P(=O)(O)O)ccc3[nH]2)C1 (some centres unmarked)
// result < 5.52

// query In one line, give reported pIC50 of the entry CCCC(=O)SCCOP(=O)(OCCSC(=O)CCC)C(F)(F)c1ccc2ccc(C(=O)N[C@H]3CN(C(=O)c4n[nH]c5ccc(C)cc45)CC[C@H]4CC[C@@H](C(=O)NCCCCCCC#Cc5cccc6c5CN(C5CCC(=O)NC5=O)C6=O)N4C3=O)cc2c1 (some centres unmarked) .
// result > 7.00

// query Consider the molecule Cc1ccc2[nH]nc(C(=O)N3CC[C@H]4CC[C@@H](C(=O)N(C)CCCCCCC#Cc5cccc6c5CN(C5CCC(=O)NC5=O)C6=O)N4C(=O)[C@@H](NC(=O)c4ccc5ccc(CP(=O)(O)O)cc5c4)C3)c2c1 (some centres unmarked) and give its recorded pIC50.
// result < 5.52

// query Entry Cc1ccc2[nH]nc(C(=O)N3CC[C@H]4CC[C@@H](C(=O)N(C)CCCCCCC#Cc5cccc6c5CN(C5CCC(=O)NC5=O)C6=O)N4C(=O)[C@@H](NC(=O)c4ccc5ccc(C(F)P(=O)(O)O)cc5c4)C3)c2c1 (some centres unmarked) needs its pIC50 filled in; supply it.
// result < 5.52

// query // fetch pIC50 given entry CN(C(=O)[C@@H]1CC[C@@H]2CCN(C(=O)CCCCCC#Cc3cccc4c3CN(C3CCC(=O)NC3=O)C4=O)C[C@H](NC(=O)c3cc4cc(C(F)(F)P(=O)(O)O)ccc4[nH]3)C(=O)N21)c1ccccc1 (some centres unmarked)
// result < 5.52
